Target: T1, cynomolgus monkey CD8A on primary cynomolgus monkey CD8+ T cells (cynomolgus monkey, UniProt P01732 23-235 (human entry))
T1 construct: also called Cyno CD8alpha
T1 sequence (P01732 other isoform, or with tags, fused parts or gaps limits assumed): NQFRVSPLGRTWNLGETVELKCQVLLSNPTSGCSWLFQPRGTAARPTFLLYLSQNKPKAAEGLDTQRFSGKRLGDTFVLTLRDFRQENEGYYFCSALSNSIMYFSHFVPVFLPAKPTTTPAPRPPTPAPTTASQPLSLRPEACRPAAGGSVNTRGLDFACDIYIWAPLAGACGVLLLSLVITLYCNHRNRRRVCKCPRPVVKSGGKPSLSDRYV
Assay: flow cytometry, cyno CD8+ T cells, 2 uM FN3
Protocol: Binding of the 190 ELISA hits to human and cynomologous monkey primary CD8 T cells was assessed by flow cytometry. The FN3 domain molecules were diluted to 2 μM and 0.2 μM in PBS and incubated with human or cynomologous monkey CD8+ T cells in 96-well format. […] Cells were gating on live cells and median fluorescence intensity of the bound Centyrins (PE channel) was calculated using Cytobank software.
Label scheme, based on Cyno T-cell Binding 2 uM (MFI): low = under 20000 MFI, mid = from 20000 MFI up to 50000 MFI, high = 50000 MFI and over

binder | cat
P283AR9P1362_E9 (designed binder, FN3 domain) LPAPKNLVVSRVTEDSARLSWVPSPWGFDSFLIQYQESEKVGEAIVLTVPGSERSYDLTGLKPGTEYTVSIYGVDVKYDIDSRPISSNPLSAIFTT | low
P282DR9P1359_C5 (designed binder, FN3 domain) LPAPKNLVVSRVTEDSARLSWTAPDAAFDSFWITYPEWPDPGGEAIVLTVPGSERSYDLTGLKPGTEYFVVIYGVKGGEIYSPLSAIFTT | high
P283AR9P1362_B8 (designed binder, FN3 domain) LPAPKNLVVSRVTEDSARLSWWTSPLPFDSFLIQYQESEKVGEAIVLTVPGSERSYDLTGLKPGTEYTVSIYGVDVKYDIDSRPISSNPLSAIFTT | low
P283AR9P1362_B10 (designed binder, FN3 domain) LPAPKNLVVSRVTEDSARLSWKRRWDSFDSFLIQYQESEKVGEAIVLTVPGSERSYDLTGLKPGTEYTVSIYGVDVEWFNGLPHHSNPLSAIFTT | mid
P282DR9P1359_G4 (designed binder, FN3 domain) LPAPKNLVVSRVTEDSARLSWTAPDAAFDSFEIAYPEWPPPGEAIVLTVPGSERSYDLTGLKPGPEYFVVIQGVKGGDPSFPLSAIFTTGGNHHHHH | high
P283AR9P1362_F8 (designed binder, FN3 domain) LPAPKNLVVSRVTEDSARLSWGYYHGHFDSFLIQYQESEKVGEAIVLTVPGSERSYDLTGLKPGTEYTVSIYGVDVKWEGNRPVASNPLSAIFTT | mid
P282DR9P1359_H5 (designed binder, FN3 domain) LPAPKNLVVSRVTEDSARLSWTAPDAAFDSFNIAYPEALHPGYGEAIVLTVPGSERSYDLTGLKPGTEYFVVIYGVKGGTNSEPLSAIFTT | low
P282FR9P1361_G9 (designed binder, FN3 domain) LPAPKNLVVSRVTEDSARLSWTAPDAAFDSFGITYWESPYAGEAIVLTVPGSERSYDLTGLKPGTEYGVFILGVKGGYPSAPLSAIFTT | low
P283AR9P1362_A3 (designed binder, FN3 domain) LPAPKNLVVSRVTEDSARLSWKRIDSPFDSFLIQYQESEKVGEAIVLTVPGSERSYDLTGLKPGTEYTVSIYGVDVKYDIDSRPISSNPLSAIFTT | low
P282AR9P1356_H1 (designed binder, FN3 domain) LPAPKNLVVSRVTEDSARLSWIPNPSSFDSFLIQYQESEKVGEAIVLTVPGSERSYDLTGLKPGTEYTVSIYGVDVVFDPVGFPSHSNPLSAIFTT | mid
P283BR9P1363_C4 (designed binder, FN3 domain) LPAPKNLVVSRVTEDSARLSWPIVNTPLHFDSFLIQYQESEKVGEAIVLTVPGSERSYDLTGLKPGTEYTVSIYGVDVQYTATGQPERSNPLSAIFTT | mid
P282ER9P1360_C6 (designed binder, FN3 domain) LSAPKNLVVSRVTEDSARLSWTAPDAAFDSFGILYYEPVDSGEAITLPIPGSERSYDLTGLKPGTEYWVVITGVKGGAPSTPLGAIFTT | high
P282CR9P1358_F5 (designed binder, FN3 domain) LPAPKNLVVSRVTEDSARLSWTAPDAAFDSFWISYPEWPPDGEAIVLTVPGSERSYDLTGLKPGTEYFVIIWGVKGGETSAPLSAIFTT | high
